SUBJECT_OF_TEST: TRPM8 (Rattus norvegicus)
Construct: 6x histidine tag (N)
Sequence (Q8R455 whole entry): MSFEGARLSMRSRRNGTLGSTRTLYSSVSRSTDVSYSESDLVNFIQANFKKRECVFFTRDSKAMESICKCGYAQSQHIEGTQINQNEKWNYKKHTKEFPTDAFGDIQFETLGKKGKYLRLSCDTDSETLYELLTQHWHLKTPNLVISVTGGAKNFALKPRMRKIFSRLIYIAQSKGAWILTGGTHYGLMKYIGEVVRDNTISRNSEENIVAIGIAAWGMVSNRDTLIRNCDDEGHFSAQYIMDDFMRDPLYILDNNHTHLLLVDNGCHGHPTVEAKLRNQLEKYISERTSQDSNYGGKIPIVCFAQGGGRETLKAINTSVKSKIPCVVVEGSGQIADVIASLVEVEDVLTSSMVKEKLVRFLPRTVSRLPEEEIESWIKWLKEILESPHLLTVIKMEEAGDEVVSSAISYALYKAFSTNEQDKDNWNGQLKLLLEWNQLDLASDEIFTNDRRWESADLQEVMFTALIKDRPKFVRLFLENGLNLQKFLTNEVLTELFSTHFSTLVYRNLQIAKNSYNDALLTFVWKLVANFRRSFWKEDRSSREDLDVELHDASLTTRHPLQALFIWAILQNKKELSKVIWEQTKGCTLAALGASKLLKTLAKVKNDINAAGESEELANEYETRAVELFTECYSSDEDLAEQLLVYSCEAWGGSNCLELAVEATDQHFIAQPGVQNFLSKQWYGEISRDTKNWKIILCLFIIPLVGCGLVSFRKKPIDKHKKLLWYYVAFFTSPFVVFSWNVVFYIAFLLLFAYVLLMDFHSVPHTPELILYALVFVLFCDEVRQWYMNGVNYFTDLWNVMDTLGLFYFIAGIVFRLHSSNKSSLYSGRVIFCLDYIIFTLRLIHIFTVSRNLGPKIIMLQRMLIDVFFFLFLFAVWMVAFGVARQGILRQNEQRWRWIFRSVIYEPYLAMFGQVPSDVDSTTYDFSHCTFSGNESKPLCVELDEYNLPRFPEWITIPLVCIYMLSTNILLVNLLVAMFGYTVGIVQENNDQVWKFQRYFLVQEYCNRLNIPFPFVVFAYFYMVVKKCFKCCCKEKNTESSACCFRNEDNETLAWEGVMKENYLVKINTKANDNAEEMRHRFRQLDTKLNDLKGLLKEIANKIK
ASSAY_METHOD_TEXT: Ensemble TRPM8 currents in droplet lipid bilayer with solution perfusion (drug potency)
CONDITION: +100 mV, protein:lipid 1:1000, 2.5 μM PI(4,5)P2, n=3
READOUT: EC50 (µM)
Express it in µM; write the number only.

## Task Hello, please tell me recorded EC50 for this one: CC1CCC(C(C)C)C(O)C1 (stereo not shown)
## Result 112
